What follows is a record of Ki for Mu-type opioid receptor (Rattus norvegicus).
Only the number, expressed in µM, is required.

substance.smiles	Ki / µM
C[C@@H]1[C@@H]2Cc3ccc(O)cc3[C@]1(C)CCN2	0.47
C[C@@H]1[C@@H]2Cc3ccc(O)cc3[C@]1(C)CCN2CCCCc1ccccc1	0.27
C/C=C/CN1CC[C@@]2(C)c3cc(O)ccc3C[C@H]1[C@H]2C	5.62

**Q:** Could you share what Ki was measured for C=C[C@@H](C)N1CC[C@]2(C)c3cc(O)ccc3C[C@@H]1[C@@H]2C , tested on Mu-type opioid receptor (Rattus norvegicus)?
**A:** 0.0059

**Q:** Could you share what Ki was measured for C[C@@H]1[C@@H]2Cc3ccc(O)cc3[C@]1(C)CCN2C/C=C/Cl , tested on Mu-type opioid receptor (Rattus norvegicus)?
**A:** 1.98

**Q:** Could you share what Ki was measured for C[C@H]1[C@H]2Cc3ccc(O)cc3[C@@]1(C)CCN2C , tested on Mu-type opioid receptor (Rattus norvegicus)?
**A:** 0.011

**Q:** Could you share what Ki was measured for C[C@@H]1[C@@H]2Cc3ccc(O)cc3[C@@]1(C)CN2CC1CC1 , tested on Mu-type opioid receptor (Rattus norvegicus)?
**A:** 1.24

**Q:** Could you share what Ki was measured for CC(C)CCN1CC[C@]2(C)c3cc(O)ccc3C[C@@H]1[C@@H]2C , tested on Mu-type opioid receptor (Rattus norvegicus)?
**A:** 0.0049

**Q:** Could you share what Ki was measured for C/C=C\CN1CC[C@@]2(C)c3cc(O)ccc3C[C@H]1[C@H]2C , tested on Mu-type opioid receptor (Rattus norvegicus)?
**A:** 1.69

**Q:** Could you share what Ki was measured for C=CCN1CC[C@]2(C)c3cc(O)ccc3C[C@@H]1[C@@H]2C , tested on Mu-type opioid receptor (Rattus norvegicus)?
**A:** 0.0036

**Q:** Could you share what Ki was measured for C[C@H]1[C@H]2Cc3ccc(O)cc3[C@@]1(C)CCN2CCCCc1ccccc1 , tested on Mu-type opioid receptor (Rattus norvegicus)?
**A:** 0.004

**Q:** Could you share what Ki was measured for C[C@H]1[C@H]2Cc3ccc(O)cc3[C@@]1(C)CCN2CCCc1ccccc1 , tested on Mu-type opioid receptor (Rattus norvegicus)?
**A:** 0.02

**Q:** Could you share what Ki was measured for C=C[C@@H](C)N1CC[C@@]2(C)c3cc(O)ccc3C[C@H]1[C@H]2C , tested on Mu-type opioid receptor (Rattus norvegicus)?
**A:** 0.69

**Q:** Could you share what Ki was measured for C[C@@H]1[C@@H]2Cc3ccc(O)cc3[C@]1(C)CCN2CCCc1ccccc1 , tested on Mu-type opioid receptor (Rattus norvegicus)?
**A:** 0.343

**Q:** Could you share what Ki was measured for CC#CCN1CC[C@]2(C)c3cc(O)ccc3C[C@@H]1[C@@H]2C , tested on Mu-type opioid receptor (Rattus norvegicus)?
**A:** 0.0051

**Q:** Could you share what Ki was measured for C[C@H]1[C@H]2Cc3ccc(O)cc3[C@]1(C)CCN2CC1CC1 , tested on Mu-type opioid receptor (Rattus norvegicus)?
**A:** 0.00018

**Q:** Could you share what Ki was measured for C[C@H]1[C@H]2Cc3ccc(O)cc3[C@@]1(C)CCN2Cc1ccccc1 , tested on Mu-type opioid receptor (Rattus norvegicus)?
**A:** 0.097

**Q:** Could you share what Ki was measured for CC#CCN1CC[C@@]2(C)c3cc(O)ccc3C[C@H]1[C@H]2C , tested on Mu-type opioid receptor (Rattus norvegicus)?
**A:** 1

**Q:** Could you share what Ki was measured for C[C@@H]1[C@@H]2Cc3ccc(O)cc3[C@]1(C)CCN2CCCCCc1ccccc1 , tested on Mu-type opioid receptor (Rattus norvegicus)?
**A:** 0.26
